Molecular target: T1, mouse Trop-2-His (mouse, UniProt Q8BGV3 25-270)
T1 sequence (looked up): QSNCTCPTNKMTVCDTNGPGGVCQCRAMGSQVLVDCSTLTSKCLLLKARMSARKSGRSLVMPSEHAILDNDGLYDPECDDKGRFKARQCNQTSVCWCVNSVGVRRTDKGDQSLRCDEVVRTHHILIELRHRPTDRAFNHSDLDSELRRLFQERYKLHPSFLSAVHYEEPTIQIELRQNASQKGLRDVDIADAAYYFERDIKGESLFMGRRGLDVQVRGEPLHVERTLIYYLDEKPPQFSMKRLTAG
Assay: ELISA on coated antigen, one antibody dilution (concentration not given), detected by GAH-HRP; y axis without a label (OD450 by the text)
Endpoint label: binding result

humanized IgG #118-2-5 HuD/LuY (antibody, V domains shown, Full-length IgG expressed in HEK293-6E cells; also called 8 (HuD/LuY)) VH: QVQLKESGPGLVAPSETLSITCTVSGFSLTSYGVNWIRQPPGKGLEWLGVMWAGGSTNYNSALMSRLTISKDTSKNQVSLKLSSVQAADTAMYYCARDENWDGAWFAYWGQGTLVTVSS VL: DIVMTQSPSSLAVSLGERATMSCKSSQSLLNSGTRKNYLAWYQQKPGQPPKLLISWASSRESGVPDRFSGSGSGTDFTLTISSVQAEDLAVYYCKQSYNLFTFGGGTKVEIK = no binding
humanized IgG #118-2-5 HuA/LuX (antibody, V domains shown, Full-length IgG expressed in HEK293-6E cells; also called 1 (HuA/LuX); IgG HuA/LuX) VH: QVQLQESGPGLVKPSETLSLTCTVSGFSLTSYGVNWIRQPPGKGLEWIGVMWAGGSTNYNSALMSRVTISVDTSKNQFSLKLSSVTAADTAVYYCARDENWDGAWFAYWGQGTLVTVSS VL: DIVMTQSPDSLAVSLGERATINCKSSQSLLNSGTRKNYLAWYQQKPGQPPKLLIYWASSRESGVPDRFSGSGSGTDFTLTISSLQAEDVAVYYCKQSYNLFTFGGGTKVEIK = no binding
humanized IgG #118-2-5 HuC/LuX (antibody, V domains shown, Full-length IgG expressed in HEK293-6E cells; also called 3 (HuC/LuX)) VH: QVQLQESGPGLVKPSETLSLTCTVSGFSLTSYGVNWIRQPPGKGLEWIGVMWAGGSTNYNSALMSRLSISKDNSKSQVFLKMNSLQTDDTGMYYCARDENWDGAWFAYWGQGTLVTVSS VL: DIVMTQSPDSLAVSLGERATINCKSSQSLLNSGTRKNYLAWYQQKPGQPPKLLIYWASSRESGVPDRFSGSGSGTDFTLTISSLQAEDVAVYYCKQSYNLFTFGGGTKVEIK = no binding
